# measurementSetup: in DMF, 313.14 K
endpointLabel: solubility (mole fraction)
Numbers only.

Req: // solubility (mole fraction) lookup, key: `O=S(=O)([O-])NC1CCCCC1.[Na+]`
Resp: 0.00095

* * *

# measurementSetup: in formic acid, 283.13 K
endpointLabel: solubility (mole fraction)
Numbers only.

Req: // solubility (mole fraction) lookup, key: `O=S(=O)([O-])NC1CCCCC1.[Na+]`
Resp: 0.016

* * *

# measurementSetup: in DMSO, 328.15 K
endpointLabel: solubility (mole fraction)
One number for each entry.

Req: // solubility (mole fraction) lookup, key: `O=S(=O)([O-])NC1CCCCC1.[Na+]`
Resp: 0.0198

* * *

# measurementSetup: in formamide, 313.15 K
endpointLabel: solubility (mole fraction)
One number for each entry.

Req: // solubility (mole fraction) lookup, key: `O=S(=O)([O-])NC1CCCCC1.[Na+]`
Resp: 0.0543

* * *

# measurementSetup: in DMSO, 293.13 K
endpointLabel: solubility (mole fraction)
Answers are plain numbers.

Req: // solubility (mole fraction) lookup, key: `O=S(=O)([O-])NC1CCCCC1.[Na+]`
Resp: 0.000997

* * *

# measurementSetup: in formic acid, 323.15 K
endpointLabel: solubility (mole fraction)
One number for each entry.

Req: // solubility (mole fraction) lookup, key: `O=S(=O)([O-])NC1CCCCC1.[Na+]`
Resp: 0.0487

* * *

# measurementSetup: in DMSO, 318.15 K
endpointLabel: solubility (mole fraction)
Give bare numbers.

Req: // solubility (mole fraction) lookup, key: `O=S(=O)([O-])NC1CCCCC1.[Na+]`
Resp: 0.0154

* * *

# measurementSetup: in DMF, 283.15 K
endpointLabel: solubility (mole fraction)
Give bare numbers.

Req: // solubility (mole fraction) lookup, key: `O=S(=O)([O-])NC1CCCCC1.[Na+]`
Resp: 3.1e-05

* * *

# measurementSetup: in methanol, 298.1 K
endpointLabel: solubility (mole fraction)
Give bare numbers.

Req: // solubility (mole fraction) lookup, key: `O=S(=O)([O-])NC1CCCCC1.[Na+]`
Resp: 0.00331

* * *

# measurementSetup: in methanol, 288.15 K
endpointLabel: solubility (mole fraction)
Give bare numbers.

Req: // solubility (mole fraction) lookup, key: `O=S(=O)([O-])NC1CCCCC1.[Na+]`
Resp: 0.00295

* * *

# measurementSetup: in acetic acid, 318.13 K
endpointLabel: solubility (mole fraction)
Numbers only.

Req: // solubility (mole fraction) lookup, key: `O=S(=O)([O-])NC1CCCCC1.[Na+]`
Resp: 0.0103
